All values here come from the MegaScale stability set (Tsuboyama et al. 2023).

B1: EEHEE_rd4_0647 (parent)
chain: MQVTWGNVTVTFSNPEEAKKYAEKVARKLGGQVELHNGQFRIK

Variants of: B1
experimentSummary: folding stability dG (cDNA display proteolysis); higher = more stable
setupConditions: PBS, room temperature
Mark true for reported folding stability dG of 2 kcal/mol or greater; mark false for anything smaller.

>>> classname("A22E")
"false"
>>> classname("N7H")
"true"
>>> classname("Y21G")
"false"
>>> classname("V3S")
"false"
>>> classname("F12T")
"false"
>>> classname("W5E")
"false"
>>> classname("Q32I")
"true"
>>> classname("L29T")
"true"
>>> classname("T9L")
"true"
>>> classname("Q2K")
"true"
